molecular target: UniProt P04585; assay: Test 1: inhibition of proteolytic activity of HIV-1 protease (HPLC); assay type: biochemical; design: proteolytic activity of HIV-1 protease; conditions: HPLC; HIV Substrate III; read-out: Enzyme Assays (HPLC) IC50
pIC50: −log10 of the molar value.
Please provide measured pIC50 for the entries that follow.

input: Given the molecule NC(=O)C[C@H](NC(=O)c1ccc2ccccc2n1)C(=O)N[C@@H](Cc1ccccc1)[C@@H](O)CSC1CCCC1C(=O)Nc1ccccc1 (stereo partly drawn) [Compound 18] , what is its reported pIC50?
output: < 6.30

input: Entry CC(C)(C)NC(=O)c1ccccc1SC[C@H](O)[C@H](Cc1ccccc1)NC(=O)[C@H](CC(N)=O)NC(=O)c1ccccn1 [Compound 54] has what pIC50?
output: < 7.00

***
input: Fill in the blank: the reported pIC50 of CSCC[C@H](NC(=O)OC(C)(C)C)C(=O)N[C@@H](Cc1ccccc1)[C@@H](O)CSc1ccccc1C(=O)NC(C)(C)C [IN 5] is ____.
output: < 7.00

---

molecular target: HIV1 protease (Human immunodeficiency virus type 1 group M subtype B); test: Test 1: inhibition of proteolytic activity of HIV-1 protease (HPLC); format: biochemical; set-up: proteolytic activity of HIV-1 protease; conditions: intermediate compound; read-out: IC50 in Test 1, Inhibition of Proteolytic Activity of HIV-1-Protease
Measured Property: IC50 (µM)
Give bare numbers, in µM.

input: Name the reported IC50 value associated with the compound CC(C)(C)NC(=O)c1ccccc1SCC(O)C(Cc1ccccc1)NC(=O)OC(C)(C)C (stereo not shown)
output: 3

---

biological target: HIV1 protease (Human immunodeficiency virus type 1 group M subtype B, UniProt P04585); assay: Test 3: inhibition of proteolytic activity of HIV-1 protease by scintillation proximity assay (SPA); format: biochemical; conditions: SPA; room temperature, 40 minutes; read-out: Enzyme Assays (SPA) IC50
Measured Property: IC50

Use the examples below as a reference point.
input: What does the data say about its IC50? Entry: NC(=O)C[C@H](NC(=O)c1ccc2ccccc2n1)C(=O)N[C@@H](Cc1ccccc1)[C@@H](O)CSc1nc2ccccc2[nH]1
output: > 200 nM

input: # IC50 lookup, item CC(C)(C)NC(=O)c1ccccc1OC[C@H](O)[C@H](Cc1ccccc1)NC(=O)[C@H](CC(N)=O)NC(=O)c1cnnc2ccccc12
output: 500 nM

input: Would you kindly share the measured IC50 for CC(C)(C)NC(=O)CCSC[C@@H](O)[C@H](Cc1ccccc1)NC(=O)[C@H](CC(N)=O)NC(=O)c1ccc2ccccc2n1 ?
output: > 200 nM

input: Looking for the measured IC50 of CCC(C)C(NC(=O)c1ccc2ccccc2n1)C(=O)N[C@@H](Cc1ccccc1)[C@H](O)CSc1ccccc1C(=O)NC(C)(C)C (stereo partly drawn) , can you help?
output: > 200 nM

input: Dear colleague, I am looking for the recorded IC50 of the following compound: CC(C)(C)NC(=O)c1ccccc1SC[C@H](O)[C@H](Cc1ccc(O)cc1)NC(=O)[C@H](CC(N)=O)NC(=O)c1ccc2ccccc2n1
output: > 500 nM

Next, consider the following compound.
input: Bench note: what IC50 did CC(C)(C)NC(=O)c1ccccc1OC[C@@H](O)[C@H](Cc1ccccc1)NC(=O)[C@H](CC(N)=O)NC(=O)c1cnc2nc(N)nc(O)c2n1 show?
output: > 500 nM

---

biological target: UniProt P04585; test: Test 1: inhibition of proteolytic activity of HIV-1 protease (HPLC); format: biochemical; design: proteolytic activity of HIV-1 protease; conditions: HPLC; HIV Substrate III; read-out: Enzyme Assays (HPLC) IC50
Could you please report measured IC50 for the items listed next?
Give bare numbers, in nM.

Illustrative cases are given below, each with its answer.
input: Please give the measured IC50 for this molecule: CC(C)(C)NC(=O)c1ccccc1SC[C@@H](O)[C@H](Cc1ccccc1)NC(=O)[C@H](CC(N)=O)NC(=O)c1ccc2ccccc2n1
output: 54

input: Quick check: IC50 of CC(C)(C)NC(=O)c1ccccc1OC[C@@H](O)[C@H](Cc1ccccc1)NC(=O)[C@H](CC(N)=O)NC(=O)c1ccc2ccccc2n1 ?
output: 8

input: # query: IC50 of entry CC(C)[C@H](NC(=O)c1ccc2ccccc2n1)C(=O)N[C@@H](Cc1ccccc1)[C@@H](O)CSc1ccccc1C(=O)NC(C)(C)C
output: 80

input: I am curious: what IC50 value has been reported for CCC(C)[C@H](NC(=O)c1ccc2ccccc2n1)C(=O)N[C@@H](Cc1ccccc1)[C@@H](O)COc1ccccc1C(=O)NC(C)(C)C (stereo partly drawn) ?
output: 60

Next item in the queue.
input: Entry CC(C)(C)NC(=O)c1ccccc1OC[C@H](O)[C@H](Cc1ccccc1)NC(=O)[C@H](CC(N)=O)NC(=O)c1ccc2ccccc2n1 : reported IC50 = ?
output: 10

---

target: HIV1 protease (Human immunodeficiency virus type 1 group M subtype B); experiment: Test 3: inhibition of proteolytic activity of HIV-1 protease by scintillation proximity assay (SPA); assay type: biochemical; details: SPA; room temperature, 40 minutes; read-out: Enzyme Assays (SPA) IC50
Measured Property: IC50 (nM)
Give bare numbers, in nM.

# example entries with known answers
input: Field request: IC50 | item: CC(C)(C)NC(=O)c1ccccc1OC[C@@H](O)[C@H](Cc1ccccc1)NC(=O)[C@H](CC(N)=O)NC(=O)OCc1ccccc1
output: 125

input: Which IC50 reading was recorded for the molecule CC(C)(C)NC(=O)c1cc2ccccc2cc1OC[C@@H](O)[C@H](Cc1ccccc1)NC(=O)[C@H](CC(N)=O)NC(=O)c1ccc2ccccc2n1 ?
output: 280

input: I am curious: what IC50 value has been reported for CC(C)(C)NC(=O)c1ccccc1OC[C@H](O)[C@H](Cc1ccccc1)NC(=O)[C@H](CC(N)=O)NC(=O)c1cc(O)c2ccccc2n1 ?
output: 410

input: Would you kindly share the measured IC50 for CC(C)(C)NC(=O)c1ccccc1OC[C@H](O)[C@H](Cc1ccccc1)NC(=O)[C@H](CC(N)=O)NC(=O)OCc1ccccc1 ?
output: 80

Now consider a different molecule.
input: Item under review: NC(=O)C[C@H](NC(=O)c1ccc2ccccc2n1)C(=O)N[C@@H](Cc1ccccc1)[C@H](O)CSC1CCCC1C(=O)Nc1ccccc1 (single isomer, unassigned) [Compound 17] . Reported IC50?
output: 200

---

molecular target: HIV1 protease (Human immunodeficiency virus type 1 group M subtype B); assay: Test 1: inhibition of proteolytic activity of HIV-1 protease (HPLC); type: biochemical; parameters: proteolytic activity of HIV-1 protease; details: HPLC; HIV Substrate III; read-out: Enzyme Assays (HPLC) IC50
pIC50: −log10 of the molar value.
Measured Property: pIC50

input: Which measured pIC50 belongs to NC(=O)C[C@H](NC(=O)c1ccc2ccccc2n1)C(=O)N[C@@H](Cc1ccccc1)[C@@H](O)CSC1CCCC1C(=O)Nc1ccccc1 (some centres unmarked) [Compound 16] , tested on HIV1 protease (Human immunodeficiency virus type 1 group M subtype B)?
output: < 6.30

input: Observed pIC50 on HIV1 protease (Human immunodeficiency virus type 1 group M subtype B) for CSCC[C@H](NC(=O)c1ccc2ccccc2n1)C(=O)N[C@@H](Cc1ccccc1)[C@@H](O)CSc1ccccc1C(=O)NC(C)(C)C [Compound 44] , please.
output: < 7.00

input: Query pIC50 on HIV1 protease (Human immunodeficiency virus type 1 group M subtype B) for CCn1cc(C(=O)N[C@@H](CC(N)=O)C(=O)N[C@@H](Cc2ccccc2)[C@@H](O)CSc2ccccc2C(=O)NC(C)(C)C)c(=O)c2ccc(C)nc21 [Compound 53]
output: < 7.00

Answer for every listed entry: what is its pIC50? The entries follow.
1. CC(C)(C)NC(=O)c1ccccc1SC[C@H](O)[C@H](Cc1ccccc1)NC(=O)[C@H](CCC(N)=O)NC(=O)c1ccc2ccccc2n1 [Compound 48]
2. CCCCNC(=O)c1ccccc1SC[C@H](O)[C@H](Cc1ccccc1)NC(=O)[C@H](CC(N)=O)NC(=O)c1ccc2ccccc2n1 [Compound 8]
3. CCC(C)[C@H](NC(=O)c1ccc2ccccc2n1)C(=O)N[C@@H](Cc1ccccc1)[C@@H](O)CSc1ccccc1C(=O)NC(C)(C)C (some centres unmarked) [Compound 35]
4. CC(C)(C)NC(=O)CCSC[C@H](O)[C@H](Cc1ccccc1)NC(=O)[C@H](CC(N)=O)NC(=O)c1ccc2ccccc2n1 [Compound 27]
5. CC(C)(C)NC(=O)c1ccccc1SC[C@H](O)[C@H](Cc1ccccc1)NC(=O)[C@H](Cc1c[nH]c2ccccc12)NC(=O)OC(C)(C)C [IN 6]
6. CC(C)(C)NC(=O)c1ccccc1SC[C@H](O)[C@H](Cc1ccccc1)NC(=O)[C@H](Cc1c[nH]c2ccccc12)NC(=O)c1ccc2ccccc2n1 [Compound 51]
7. CC(C)(C)NC(=O)C1CCCC1SCC(O)[C@H](Cc1ccccc1)NC(=O)[C@H](CC(N)=O)NC(=O)c1ccc2ccccc2n1 (some centres unmarked) [Compound 13]
8. CCCCNC(=O)c1ccccc1S(=O)(=O)C[C@H](O)[C@H](Cc1ccccc1)NC(=O)[C@H](CC(N)=O)NC(=O)c1ccc2ccccc2n1 [Compound 9]

output:
1: < 7.00; 2: 6.40; 3: 7.59; 4: < 6.30; 5: < 7.00; 6: < 8.30; 7: 6.52; 8: < 6.30
